Molecular target: Pol theta (1-899) (Homo sapiens)
Construct: Pol theta (1-899) (5 nM) in assay buffer
Sequence (O75417 1-899): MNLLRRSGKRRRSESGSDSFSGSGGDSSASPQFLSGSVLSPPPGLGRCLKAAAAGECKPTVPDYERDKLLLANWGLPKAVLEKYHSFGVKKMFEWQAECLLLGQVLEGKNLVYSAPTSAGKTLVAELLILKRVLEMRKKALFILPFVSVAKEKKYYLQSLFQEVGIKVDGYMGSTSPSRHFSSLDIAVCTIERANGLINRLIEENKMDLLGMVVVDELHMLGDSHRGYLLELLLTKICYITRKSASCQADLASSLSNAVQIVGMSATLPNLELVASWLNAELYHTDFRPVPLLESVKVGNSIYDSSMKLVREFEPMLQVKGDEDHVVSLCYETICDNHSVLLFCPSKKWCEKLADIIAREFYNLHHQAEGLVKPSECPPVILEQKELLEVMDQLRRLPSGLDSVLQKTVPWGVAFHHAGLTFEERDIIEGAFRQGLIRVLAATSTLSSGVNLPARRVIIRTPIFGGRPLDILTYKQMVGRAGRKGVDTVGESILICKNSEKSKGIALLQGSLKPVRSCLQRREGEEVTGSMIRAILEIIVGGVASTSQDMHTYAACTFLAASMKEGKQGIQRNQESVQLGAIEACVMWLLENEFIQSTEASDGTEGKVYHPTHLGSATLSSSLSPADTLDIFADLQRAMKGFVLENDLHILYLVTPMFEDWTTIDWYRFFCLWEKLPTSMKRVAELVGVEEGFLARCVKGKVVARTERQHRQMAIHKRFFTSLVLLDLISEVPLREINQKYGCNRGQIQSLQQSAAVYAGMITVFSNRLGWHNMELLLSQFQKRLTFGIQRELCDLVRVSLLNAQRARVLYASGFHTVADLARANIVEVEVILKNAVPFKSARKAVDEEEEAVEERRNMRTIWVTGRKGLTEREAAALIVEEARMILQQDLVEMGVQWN
Assay: Pol theta ATPase activity, NADH oxidation-coupled enzymatic assay (ATPase NADH coupling: Standard Screening: hPolQ)
Type: biochemical
Details: Pol theta (1-899) 5 nM, NADH oxidation-coupled ATPase assay; compounds of Table 3
Reported property: IC50

Completed entries (count: 3):
COc1cc(C)c(-c2cc(C)ncc2C(=O)Nc2nnc(OC)s2)cn1 | 1000 to 10000 nM
COc1nnc(NC(=O)c2cnc(C)cc2-c2ccc(-c3ccccc3)cc2)s1 | 1000 to 10000 nM
COc1cnc(C)c(F)c1-c1cc(C)ncc1C(=O)Nc1nnc(O[C@H]2CCC[C@H](O)C2)s1 (single isomer, unassigned) | ≤ 200 nM

// lookup IC50 for "COc1nnc(NC(=O)c2cnc(C)cc2-c2ccc3ncncc3c2)s1"
1000 to 10000 nM

// lookup IC50 for "CNS(=O)(=O)c1cccc(-c2cc(C)ncc2C(=O)Nc2nnc(OC)s2)c1"
1000 to 10000 nM

// lookup IC50 for "COc1nnc(NC(=O)c2cnc(C)cc2-c2ccc3c(c2)COC3=O)s1"
1000 to 10000 nM

// lookup IC50 for "COc1nnc(NC(=O)c2cnc(C)cc2-c2ccc(C(=O)O)cc2)s1"
1000 to 10000 nM

// lookup IC50 for "COc1nnc(NC(=O)c2ccccc2-c2cc(Cl)ncc2OC)s1"
≤ 200 nM
